System: LXFL 529 NSCLC
ASSAY TEXT: NCI tumour cell line growth inhibition, 48 h
Reported TGI is given for each of the following compounds.

Please review the following examples before continuing.
c1ccc2c(NCCCCCCNc3cccc4ccccc34)cccc2c1
> 100 µM
COc1ccc2nc(NC(=O)C(=O)NNC(=O)c3ccncc3)sc2c1
> 100 µM
O=C1C=CC2(C=C1)C[C@H](NC(=O)OCc1ccccc1)C(=O)O2
24.7 µM

// next entry
Req: I would be grateful if you could share the reported TGI for COc1cccc(NC(=O)C(=O)C2C=CCS2(=O)=O)c1 (centres undefined) .
Resp: > 100 µM

----------
Test system: NCI-H226 lung
ASSAY TEXT: NCI tumour cell line growth inhibition, 48 h
Reported TGI is given for each of the following compounds.

Please review the following examples before continuing.
CCN(CC)CCn1c2ccccc2c(=O)c2c(OC)ccc(OC)c21
97.3 µM
CC1=C2C3OC(=O)C(C)C3CCC2(C)C=CC1=Nc1ccccc1 (stereo unspecified)
> 100 µM
CC1(C)OC(=O)C(Cc2ccccc2)(Cc2ccccc2)C(=O)O1
> 100 µM
COc1cccc2c1C(=O)c1c(O)c3c(c(O)c1C2=O)C[C@@](O)(C(=O)CO)CC3OC1CC(NCCCC(OC(C)=O)OC(C)=O)C(O)C(C)O1 (stereo partly specified)
0.00579 µM
Cc1ccc(-c2cc(-c3ccco3)c(C#N)c(=O)n2C2OC(CO)C(O)C(O)C2O)cc1 (stereo unspecified)
> 100 µM

Req: I would be grateful if you could share the reported TGI for CC1(C)N=C(N)N=C(N)N1c1cccc(Br)c1 .
Resp: > 100 µM

Req: Quick one: Cc1ccc(N=C2C(c3ccccc3)=C(SC3=C(c4ccccc4)C(=Nc4ccc(C)cc4)c4ccccc43)c3ccccc32)cc1
Resp: > 63.1 µM
